Reference for the values: patent US20140221623A1

# target.or.system: T1, Human soluble IL6-R (human, UniProt P08887 20-358)
# T1 construct: Bought soluble receptor; biotinylated in some Alphascreen assays; also called sIL6-R; hIL-6R
# T1 sequence (looked up): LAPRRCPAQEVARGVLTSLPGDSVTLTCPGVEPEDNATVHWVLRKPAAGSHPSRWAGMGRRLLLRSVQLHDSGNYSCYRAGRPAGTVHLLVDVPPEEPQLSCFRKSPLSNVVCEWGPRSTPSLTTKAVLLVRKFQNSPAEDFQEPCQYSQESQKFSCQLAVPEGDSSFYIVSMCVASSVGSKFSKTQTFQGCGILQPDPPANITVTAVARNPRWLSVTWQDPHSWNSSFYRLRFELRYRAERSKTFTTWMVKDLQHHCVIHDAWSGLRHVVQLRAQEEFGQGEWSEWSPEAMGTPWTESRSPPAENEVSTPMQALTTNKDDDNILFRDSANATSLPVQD
# assay.text: SPR (Biacore 3000), IL6-R on CM5 chip
measure: log10 Kd (log10 of the value in nM)

- binder: "IL6R84 (VHH, Humanized variant of IL6R13) VHH: EVQLVESGGGLVQPGGSLRLSCAASGFTFDDYGMSWVRQAPGKGLEWVSAISWNGNNTYYTESMKGRFTISRDNAKNTLYLQMNSLRPEDTAVYYCVKGSTAIVGVPPTYPDEYDYWGQGTLVTVSS"
  log10 Kd: 0.73
- binder: "IL6R88 (VHH, Humanized variant of IL6R13) VHH: EVQLVESGGGLVQPGGSLRLSCAASGFTFDDYGMSWVRQAPGKGTEWVSAISWNGNNTYYTESMKGRFTISRDNAKNTLYLQMNSLRPEDTAVYYCVKGSTAIVGVPPTYPDEYDYWGQGTLVTVSS"
  log10 Kd: -0.05
- binder: "IL6R81 (VHH, Humanized variant of IL6R13) VHH: EVQLVESGGGLVQPGGSLRLSCAASGFTFDDYGMSWVRQAPGRATEWVSAISWNGNNTYYTESMKGRFTISRDNAKNTVYLQMNSLRPEDTAVYYCVKGSTAIVGVPPTYPDEYDYWGQGTLVTVSS"
  log10 Kd: -0.40
- binder: "IL6R83 (VHH, Humanized variant of IL6R13) VHH: EVQLVESGGGLVQPGGSLRLSCAASGFTFDDYGMSWVRQAPGRATEWVSAISWNGNNTYYTESMKGRFTISRDNAKNTLYLQMNSLRPEDTAVYYCVKGSTAIVGVPPTYPDEYDYWGQGTLVTVSS"
  log10 Kd: -0.47
- binder: "IL6R63 (VHH, Humanized variant of IL6R03) VHH: EVQLVESGGGLVQPGGSLRLSCAASGSIFKVNAMGWYRQAPGKGRELVAGIISGGSTNYADSVKGRLTISRDNAKNTLYLQMNSLRPEDTAVYYCSFVTTNSDYDLGRDYWGQGTLVTVSS"
  log10 Kd: 0.57
- binder: "IL6R71 (VHH, Humanized variant of IL6R04) VHH: EVQLVESGGGLVQPGGSLRLSCAASGFTFDDYDIGWFRQAPGKGREGVSGISSSDGNTYYADSVKGRFTISSDNAKNTVYLQMNSLRPEDTAVYYCAAEPPDSSWYLDGSPEFFKYWGQGTLVTVSS"
  log10 Kd: -0.66
- binder: "IL6R65 (VHH, Humanized variant of IL6R03) VHH: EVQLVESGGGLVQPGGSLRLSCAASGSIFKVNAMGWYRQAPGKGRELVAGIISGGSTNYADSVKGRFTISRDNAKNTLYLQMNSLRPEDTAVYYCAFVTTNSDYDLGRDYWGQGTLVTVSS"
  log10 Kd: 0.60
- binder: "IL6R73 (VHH, Humanized variant of IL6R04) VHH: EVQLVESGGGLVQPGGSLRLSCAASGFTFDDYDIGWFRQAPGKGREGVSGISSSDGNTYYADSVKGRFTISRDNAKNTVYLQMNSLRPEDTAVYYCAAEPPDSSWYLDGSPEFFKYWGQGTLVTVSS"
  log10 Kd: -0.48
